Test system: Activin receptor type-2A (ACVR2A) (Homo sapiens)
Measurement notes: Inhibition of human recombinant ACTR2 (162 to end residues) using casein as substrate incubated for 120 mins in presence of [gamma-33P]ATP by radiometric scintillation counting analysis
Endpoint: IC50

Task: What value of IC50 has been reported for the following compound? CN(C)c1ccc(C(=O)Nc2cccc(NC(=O)COc3ccc4c(=O)ccoc4c3)c2)cc1
Output: > 10 µM
